Target: human plasma kallikrein (hPK) (Homo sapiens)
Assay: Enzyme inhibition assay, human plasma kallikrein
Numbered stars: 1 amine (or outer) side, 2 acyl side, 3 side chain; on linkers, the order of the positions; unused ones are H or OH. Bridge positions count the residues as written; N and C are the ends. Peptide text beside a SMILES is read from it. TBMB = c1c(C[*:1])cc(C[*:3])cc1C[*:2]
measuredParameter: Ki (pM)
Report the figure in pM without appending any unit label.

# returns recorded Ki (system: human plasma kallikrein (hPK) (Homo sapiens)) for CC(C)C[C@@H]1NC(=O)[C@H](CC(=O)O)NC(=O)[C@H](CCC(N)=O)NC(=O)[C@H](Cc2c[nH]cn2)NC(=O)[C@H](CC(N)=O)NC(=O)[C@@H]2CSCc3cc(cc(c3)CSC[C@@H](C(=O)N[C@@H](C)C(N)=O)NC1=O)CSC[C@H](NC(=O)[C@H](C)N)C(=O)N[C@@H](CO)C(=O)N[C@@H](Cc1c[nH]c3ccccc13)C(=O)N1CCC[C@H]1C(=O)N[C@@H](C)C(=O)N[C@@H](CCCNC(=N)N)C(=O)N2 [Peptide 06-57] (H-ACSWPARCNHQDLCA-NH2; linker 2-8-14 via TBMB)
400

---

Molecular target: human plasma kallikrein (hPK) (Homo sapiens)
Assay: Enzyme inhibition assay, human plasma kallikrein
Numbered stars: 1 amine (or outer) side, 2 acyl side, 3 side chain; on linkers, the order of the positions; unused ones are H or OH. Bridge positions count the residues as written; N and C are the ends. Square brackets hold non-standard residues; d marks the D form. Peptide text beside a SMILES is read from it. TBMB = c1c(C[*:1])cc(C[*:3])cc1C[*:2]; NMeA = CN[C@@H](C)C(=O)O
Ki: recorded values

Recorded results for 3 molecules are shown here.
# molecule, systemTested, reported
records = [
    ("C[C@H](N)C(=O)N[C@H]1CSCc2cc3cc(c2)CSC[C@H](NC(=O)[C@H](CCCNC(=N)N)NC(=O)[C@H](C)NC(=O)[C@@H]2CCCN2C(=O)[C@H](Cc2c[nH]c4ccccc24)NC(=O)[C@H]([C@@H](C)O)NC1=O)C(=O)N[C@@H]([C@@H](C)O)C(=O)N[C@@H](Cc1c[nH]cn1)C(=O)N[C@@H](CCC(N)=O)C(=O)N[C@@H](CC(N)=O)C(=O)N[C@@H](Cc1c[nH]c2ccccc12)C(=O)N[C@H](C(=O)N[C@@H](C)C(N)=O)CSC3 [Peptide 06-09] (H-ACTWPARCTHQNWCA-NH2; linker 2-8-14 via TBMB)", "human plasma kallikrein (hPK) (Homo sapiens)", "1.2 nM"),
    ("CC(=O)N[C@H]1CSCc2cc3cc(c2)CSC[C@H](NC(=O)[C@H](CCCNC(=N)N)NC(=O)[C@H](CO)NC(=O)[C@H](Cc2c[nH]c4ccccc24)NC(=O)[C@@H]2CCCN2C(=O)[C@H](C)NC1=O)C(=O)N[C@@H](CC(C)C)C(=O)N[C@@H](Cc1c[nH]cn1)C(=O)N[C@@H](CCC(N)=O)C(=O)N[C@@H](CC(=O)O)C(=O)N[C@@H](CC(C)C)C(=O)N[C@H](C(N)=O)CSC3 [Ac-(06-34-18) Scram3] (Ac-CAPWSRCLHQDLC-NH2; linker 1-7-13 via TBMB)", "human plasma kallikrein (hPK) (Homo sapiens)", "1890 nM"),
    ("CC(=O)N[C@H]1CSCc2cc3cc(c2)CSC[C@H](NC(=O)[C@H](CCCNC(=N)N)NC(=O)[C@H](C)N(C)C(=O)[C@@H]2CCCN2C(=O)[C@H](Cc2c[nH]c4ccccc24)NC(=O)[C@H](CO)NC1=O)C(=O)N[C@@H](CC(C)C)C(=O)N[C@@H](Cc1c[nH]cn1)C(=O)N[C@@H](CCC(N)=O)C(=O)N[C@@H](CC(=O)O)C(=O)N[C@@H](CC(C)C)C(=O)N[C@H](C(N)=O)CSC3 [Ac-(06-34-18) NMeAla4] (Ac-CSWP[NMeA]RCLHQDLC-NH2; linker 1-7-13 via TBMB)", "human plasma kallikrein (hPK) (Homo sapiens)", "343 nM"),
]

As a next step, examine the molecule that follows.
May I ask what Ki has been recorded for CC(=O)N[C@H]1CSCc2cc3cc(c2)CSC[C@H](NC(=O)[C@H](CCCNC(=N)N)NC(=O)[C@H](C)NC(=O)[C@H](CCC(N)=O)NC(=O)[C@H](C)NC(=O)[C@H](CO)NC1=O)C(=O)N[C@@H](CC(C)C)C(=O)N[C@@H](Cc1c[nH]cn1)C(=O)N[C@@H](CCC(N)=O)C(=O)N[C@@H](CC(=O)O)C(=O)N[C@@H](CC(C)C)C(=O)N[C@H](C(N)=O)CSC3 [Ac-(06-34-18) A2Q3] (Ac-CSAQARCLHQDLC-NH2; linker 1-7-13 via TBMB) ?
15800 nM

---

Biological target: Human factor XIIa (hfXIIa) (Homo sapiens, UniProt P00748)
Sequence (P00748 373-615 limits assumed): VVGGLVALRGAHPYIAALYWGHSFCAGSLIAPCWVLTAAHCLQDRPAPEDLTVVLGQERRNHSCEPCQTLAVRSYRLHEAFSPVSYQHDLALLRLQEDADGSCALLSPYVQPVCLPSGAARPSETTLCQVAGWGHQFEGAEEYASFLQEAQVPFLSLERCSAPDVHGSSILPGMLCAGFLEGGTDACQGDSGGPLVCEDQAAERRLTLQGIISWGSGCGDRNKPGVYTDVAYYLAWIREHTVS
pIC50: −log10 of the molar value. Numbered stars: 1 amine (or outer) side, 2 acyl side, 3 side chain; on linkers, the order of the positions; unused ones are H or OH. Bridge positions count the residues as written; N and C are the ends. Peptide text beside a SMILES is read from it. TBMB = c1c(C[*:1])cc(C[*:3])cc1C[*:2]
pIC50: recorded values

# compound, systemTested, measuredParameter, reported
records = [
    ("CC(C)C[C@@H]1NC(=O)[C@@H]2CSCc3cc(cc(c3)CSC[C@@H](C(=O)N[C@@H](C)C(N)=O)NC(=O)[C@H](Cc3ccc(O)cc3)NC(=O)[C@H](CC(=O)O)NC(=O)[C@H](CCC(N)=O)NC(=O)[C@H](Cc3c[nH]cn3)NC1=O)CSC[C@H](NC(=O)[C@H](C)N)C(=O)N[C@@H](CO)C(=O)N[C@@H](Cc1c[nH]c3ccccc13)C(=O)N1CCC[C@H]1C(=O)N[C@@H](Cc1ccc(O)cc1)C(=O)N[C@@H](CCCNC(=N)N)C(=O)N2 [Peptide 06-61] (H-ACSWPYRCLHQDYCA-NH2; linker 2-8-14 via TBMB)", "Human factor XIIa (hfXIIa) (Homo sapiens, UniProt P00748)", "pIC50", "< 5.00"),
]

May I ask what pIC50 has been recorded for CC(C)C[C@@H]1NC(=O)[C@@H]2CSCc3cc(cc(c3)CSC[C@@H](C(=O)N[C@@H](C)C(N)=O)NC(=O)[C@@H]3CCCN3C(=O)[C@H](CCCNC(=N)N)NC(=O)[C@H](CCCNC(=N)N)NC(=O)[C@H](Cc3ccccc3)NC1=O)CSC[C@H](NC(=O)[C@H](C)N)C(=O)N[C@@H](C)C(=O)N[C@@H](CC(=O)O)C(=O)N1CCC[C@H]1C(=O)N[C@@H](Cc1c[nH]c3ccccc13)C(=O)N[C@@H](C)C(=O)N2 [06-63 T] (H-ACADPWACLFRRPCA-NH2; linker 2-8-14 via TBMB) ?
< 5.00

---

Ki: recorded values
Target: human plasma kallikrein (hPK) (Homo sapiens, UniProt P03952)
Assay: Enzyme inhibition assay, human plasma kallikrein
Numbered stars: 1 amine (or outer) side, 2 acyl side, 3 side chain; on linkers, the order of the positions; unused ones are H or OH. Bridge positions count the residues as written; N and C are the ends. Peptide text beside a SMILES is read from it. TBMB = c1c(C[*:1])cc(C[*:3])cc1C[*:2]
Report the figure in nM without appending any unit label.

# molecule, systemTested, measuredParameter, reported
measured = [
    ("CC(=O)N[C@H]1CSCc2cc3cc(c2)CSC[C@H](NC(=O)[C@H](CCCNC(=N)N)NC(=O)[C@H](C)NC(=O)[C@H]2CCCN2C(=O)[C@H](Cc2c[nH]c4ccccc24)NC(=O)[C@H](CO)NC1=O)C(=O)N[C@@H](CC(C)C)C(=O)N[C@@H](Cc1c[nH]cn1)C(=O)N[C@@H](CCC(N)=O)C(=O)N[C@@H](CC(=O)O)C(=O)N[C@@H](CC(C)C)C(=O)N[C@H](C(N)=O)CSC3 [Ac-(06-34-18) D-Pro3]", "human plasma kallikrein (hPK) (Homo sapiens, UniProt P03952)", "Ki", 680),
    ("CC(=O)N[C@H]1CSCc2cc3cc(c2)CSC[C@H](NC(=O)[C@H](CCCNC(=N)N)NC(=O)[C@@H](C)NC(=O)[C@@H]2CCCN2C(=O)[C@H](Cc2c[nH]c4ccccc24)NC(=O)[C@H](CO)NC1=O)C(=O)N[C@@H](CC(C)C)C(=O)N[C@@H](Cc1c[nH]cn1)C(=O)N[C@@H](CCC(N)=O)C(=O)N[C@@H](CC(=O)O)C(=O)N[C@@H](CC(C)C)C(=O)N[C@H](C(N)=O)CSC3 [Ac-(06-34-18) D-Ala4]", "human plasma kallikrein (hPK) (Homo sapiens, UniProt P03952)", "Ki", 1200),
    ("CC(C)C[C@@H]1NC(=O)[C@@H]2CSCc3cc(cc(c3)CSC[C@@H](C(=O)N[C@@H](C)C(N)=O)NC(=O)[C@@H]3CCCN3C(=O)[C@H](CCCNC(=N)N)NC(=O)[C@H](CCCNC(=N)N)NC(=O)[C@H](Cc3ccccc3)NC1=O)CSC[C@H](NC(=O)[C@H](C)N)C(=O)N[C@@H](C)C(=O)N[C@@H](CC(=O)O)C(=O)N1CCC[C@H]1C(=O)N[C@@H](Cc1c[nH]c3ccccc13)C(=O)N[C@@H](C)C(=O)N2 [06-63 T] (H-ACADPWACLFRRPCA-NH2; linker 2-8-14 via TBMB)", "human plasma kallikrein (hPK) (Homo sapiens, UniProt P03952)", "Ki", 1280),
]

As a next step, examine the molecule that follows.
# returns recorded Ki (system: human plasma kallikrein (hPK) (Homo sapiens, UniProt P03952)) for CC(=O)N[C@H]1CSCc2cc3cc(c2)CSC[C@H](NC(=O)[C@H](CCCNC(=N)N)NC(=O)[C@H](Cc2c[nH]c4ccccc24)NC(=O)[C@H](C)NC(=O)[C@H](CO)NC(=O)[C@@H]2CCCN2C1=O)C(=O)N[C@@H](CC(C)C)C(=O)N[C@@H](Cc1c[nH]cn1)C(=O)N[C@@H](CCC(N)=O)C(=O)N[C@@H](CC(=O)O)C(=O)N[C@@H](CC(C)C)C(=O)N[C@H](C(N)=O)CSC3 [Ac-(06-34-18) Scram1] (Ac-CPSAWRCLHQDLC-NH2; linker 1-7-13 via TBMB)
1090
